test: yeast display, Sf9 membrane polyspecificity reagent, FACS + sequencing; frameworks hold sequencing errors
readout.label: polyreactivity (PSR sort gate)

>>> result("QVQLVESGGGLVQAGGSLRLSCAASGRTLYYYAMGWYRQAPGKERELVAAITRSGGSTYYADSVKGRFTISRDNAKNTVYLQMISLKPEDTEVYYFNKYGYKGGLGYDYWGQGTQVTVSS")
"high polyreactivity"
>>> result("QVQLVESAAGLVQAGGSHRLSCAASGFTFDHYAMGWSRQEPGKESELVAAISKRGGTTYYADSVKGRFTISRDNAKNTVYLQTKSLKPEDTAVYYCNADVNNWEDDYYYWGQGTQVTVSS")
"high polyreactivity"
>>> result("QVQLVESGGGLVQAGGSLRLSCAASGRTFTRYAMGWYRQAPGKERELVATITRGGSTNYADSVKGRFTISRDNAKNTVYLQMNSLKPEDTAVYYCAAGYFIRTRSRYRYDYWGQGTQVTVSS")
"high polyreactivity"
